Target: Torsin-1A (Homo sapiens) (UniProt O14656)
Sequence (O14656 whole entry, looked up): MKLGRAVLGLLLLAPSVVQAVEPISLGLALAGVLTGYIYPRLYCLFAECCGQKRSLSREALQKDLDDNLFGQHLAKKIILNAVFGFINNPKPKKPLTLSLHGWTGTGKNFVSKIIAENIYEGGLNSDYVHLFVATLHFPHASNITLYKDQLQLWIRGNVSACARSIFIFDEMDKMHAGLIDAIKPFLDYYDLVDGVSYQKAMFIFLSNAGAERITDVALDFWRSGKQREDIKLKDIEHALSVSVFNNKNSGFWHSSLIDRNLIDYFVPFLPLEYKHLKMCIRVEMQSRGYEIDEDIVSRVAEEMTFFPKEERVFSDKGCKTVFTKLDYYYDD
Assay: torsin A binders from cell lysate, primary screen, small-molecule microarray, wild-type, 635/667 nm (AID 1149)
Conditions: COS7 hTOR1A-WT lysate, 635 nm fluorescence, higher = more signal
Please provide measured composite z-score for the entries that follow.
A bare number is all that is needed in reply.

Using the record for "C=C(C(=O)CC[C@H](OC(=O)c1ccccc1-c1ccccc1C(=O)O)c1ccc(OCCO)cc1)C(C)C" , state its measured composite z-score.
1.87

Using the record for "COC(=O)Cn1c(C(=O)N(C)C)cc2c1C[C@H]1CN(C(=O)c3ccccc3)[C@@](Cc3ccccc3)(C(=O)OC)[C@@H]21" , state its measured composite z-score.
0.263

Using the record for C=CCC(OC(C)=O)[C@@H]1[C@@H](N(Cc2cccc3ccccc23)C(=O)c2ccc(C)cc2)c2cc(OCCCO)ccc2N1C(=O)Cc1ccc2ccccc2c1 (stereo partly specified) , state its measured composite z-score.
0.125

Using the record for "COCCOC(=O)N1C(=O)[C@@]2(c3cc(C#CCCO)ccc31)[C@H](c1ccc(O)cc1)N1[C@H](c3ccccc3)[C@H](c3ccccc3)OC(=O)[C@H]1[C@@H]2C(=O)NC[C@H](O)c1ccccc1" , state its measured composite z-score.
0.127

Using the record for "CC[C@@H](O[Si](C#C[Si](C(C)C)(C(C)C)C(C)C)(C(C)C)C(C)C)c1cn(Cc2cccc(Cl)c2)nn1" , state its measured composite z-score.
0.188

Using the record for "COc1ccc([Si](C)(C)[C@H]2[C@H](CC(=O)N(CCO)Cc3ccccc3)O[C@@]3(C(=O)N(Cc4ccc(N5C(=O)c6cccc7cccc5c67)cc4)c4ccccc43)[C@@H]2C)cc1" , state its measured composite z-score.
-0.237

Using the record for "O=C1N(Cc2ccccc2)c2ccccc2C[C@@]12N=C(c1ccc(OCCCO)cc1)O[C@H]2c1ccccc1" , state its measured composite z-score.
-0.133

Using the record for "CC(C)(C)OC(=O)CC[C@@]1(C(=O)N2CCOCC2)N=C(c2ccc(OCCCO)cc2)O[C@@H]1c1ccccc1CN=[N+]=[N-]" , state its measured composite z-score.
0.401

Using the record for "CCCC=C(CCC)[C@@H](NC(=O)c1ccc(C(=O)OC)cc1)c1ccc(C(=O)OC)cc1" , state its measured composite z-score.
-0.266

Using the record for CC1C2C(CCCO)=CC(C3C(=O)N(C)C(=O)C23)N1Cc1cccc(OC(F)(F)F)c1 (stereo unspecified) , state its measured composite z-score.
0.76

Using the record for "C=CC[C@H](O)c1ccc(O)c(F)c1" , state its measured composite z-score.
-3.98

Using the record for "C=C(COC)/C(=C/C[C@@H](OC(=O)c1ccncc1)c1ccccc1OCCO)c1cnc2ccccc2c1" , state its measured composite z-score.
0.113

Using the record for "COC(=O)[C@]1(Cc2ccccc2N=[N+]=[N-])N=C(c2ccc(OCCCO)cc2)O[C@@H]1c1ccccc1CN=[N+]=[N-]" , state its measured composite z-score.
1.12

Using the record for "COc1cc(Cc2cc3c(c(CCc4ccccc4)n2)[Si](C(C)C)(C(C)C)O[C@H]3c2ccccc2)cc(OC)c1OC" , state its measured composite z-score.
0.707

Using the record for "CCCC[C@@H](O)C1=C(C)Cn2c(=O)n(-c3ccccc3)c(=O)n2[C@H]1CO" , state its measured composite z-score.
0.0705

Using the record for O=C1C2C=CC(C(O)C(c3ccccc3)c3ccccc3)N(Nc3ccccc3F)C2C(=O)N1c1ccccc1 (stereo unspecified) , state its measured composite z-score.
1.02

Using the record for "COCCOC(=O)N1C(=O)[C@@]2(c3cc(C#CC4=CCCCC4)ccc31)[C@H](c1ccc(O)cc1)N1[C@H](c3ccccc3)[C@H](c3ccccc3)OC(=O)[C@H]1[C@@H]2C(=O)N1CCc2cc(OC)c(OC)cc2C1" , state its measured composite z-score.
0.175

Using the record for "O=C1OC[C@@H](c2ccccc2)n2cc(/C=C/c3ccccc3)cc21" , state its measured composite z-score.
-1.43

Using the record for "COc1ccc([Si](C)(C)[C@H]2[C@H](CCO)O[C@@]3(C(=O)N(Cc4ccccc4)c4ccc(NC(=O)[C@H](C)O)cc43)[C@@H]2C)cc1" , state its measured composite z-score.
0.569

Using the record for COC(=O)[C@H](Cc1ccccc1)N1CC(C)(OC)O[C@@H](Cc2ccccc2)[C@H]1/C=C/C1CC1 (stereo partly specified) , state its measured composite z-score.
0.256

Using the record for "COC(=O)[C@@]1(Cc2ccc(F)cc2)[C@H]2c3cc(C(=O)N(C)C)n(Cc4ccc(C(F)(F)F)nc4)c3C[C@H]2CN1C(=O)c1ccccc1" , state its measured composite z-score.
0.516

* * *

Assay: small-molecule microarray binders of probe aLefty2, primary screen, biochemical, biotinylated probe, 635/667 nm fluorescence (AID 1094);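 further: score merges spot fluorescence near 667 nm with spot signal-to-noise ratio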
Settings: higher = more signal
Note: every record was labeled by where its composite z-score sits among range 1 (below -0.03), range 2 (-0.03 to below 0.02), range 3 (0.02 or more)

Quick check: band for "[N-]=[N+]=NCc1ccccc1C[C@@]1(C(=O)NCCN2CCOCC2)N=C(c2ccc(OCCCO)cc2)O[C@@H]1c1ccccc1"
range 2

Quick check: band for "COC(=O)[C@@]1(Cc2ccc(OC)cc2)[C@H]2c3cc(C(=O)N(C)C)n(Cc4c(CO)[nH]cc(C)c4=O)c3C[C@H]2CN1C(=O)c1ccccc1"
range 3

Quick check: band for "C=CCOC(=O)[C@@H]1[C@H]2C(=O)O[C@H](c3ccccc3)[C@H](c3ccccc3)N2[C@H](c2ccc(OCCOC(=O)[C@@H]3C[C@@H]4C(=O)N[C@@H](CC(C)C)C(=O)N4[C@@H]3c3ccc(O)cc3)cc2)[C@@]12C(=O)Nc1ccc(I)cc12"
range 1

Quick check: band for "C=C(CCCC)/C(=C/C[C@@H](OC(C)=O)c1ccc(OCCO)cc1)c1cc(C(=O)OC)ccc1OC"
range 3

Quick check: band for CCCCN1CC=CC23O[C@@H]4/C=C\CCCOC(=O)C4[C@H]2C(=O)N(CCCCCCO)[C@@H]3C1=O (stereo partly specified)
range 1

Quick check: band for "O=C1c2ccccc2[C@](Cc2ccccc2I)(C(=O)NCCN2CCOCC2)[C@H](c2ccc(CO)cc2)N1Cc1ccccc1C(F)(F)F"
range 1

Quick check: band for "C#CCN(C(=O)OC(C)(C)C)[C@H](CO)c1ccccc1"
range 1

Quick check: band for "COc1ccc([Si](C)(C)[C@H]2[C@H](CC(=O)N3CCC[C@H]3CO)O[C@@]3(C(=O)N(C)c4ccccc43)[C@@H]2C)cc1"
range 2

Quick check: band for "COC(=O)[C@]1(Cc2ccccc2CN=[N+]=[N-])N=C(c2ccc(OCCCO)cc2)O[C@@H]1c1ccccc1N=[N+]=[N-]"
range 3

Quick check: band for "CC(=O)NCCCC[C@@H]1NC(=O)[C@H]2C[C@@H](C(=O)NCCCCCN)[C@@H](c3ccc(O)cc3)N2C1=O"
range 2

Quick check: band for "COCCOC(=O)N1C(=O)[C@@]2(c3cc(C#CC4(O)CCCCCC4)ccc31)[C@H](C(N)=O)[C@H]1C(=O)O[C@H](c3ccccc3)[C@H](c3ccccc3)N1[C@@H]2c1ccc(OCCO)cc1"
range 3

Quick check: band for CC1CC/C=C\[C@H]2OC34C=CCN(CCN5CCOCC5)C(=O)[C@H]3N(C(CO)C(C)C)C(=O)[C@@H]4C2C(=O)O1 (stereo partly specified)
range 1

Quick check: band for "COCCOC(=O)N1C(=O)[C@@]2(c3cc(C#CCCO)ccc31)[C@H](c1ccc(O)cc1)N1[C@H](c3ccccc3)[C@H](c3ccccc3)OC(=O)[C@H]1[C@@H]2C(=O)NC[C@H](O)c1ccccc1"
range 1

Quick check: band for "COc1cc(Cc2cc3c(c(CCc4ccccc4)n2)[Si](C(C)C)(C(C)C)O[C@H]3c2ccccc2)cc(OC)c1OC"
range 2

Quick check: band for "[N-]=[N+]=NCc1ccccc1[C@H]1OC(c2ccc(OCCCO)cc2)=N[C@@]1(CCS(=O)(=O)c1ccccc1)C(=O)O"
range 3

Quick check: band for "CC(C)(C)OC(=O)CC[C@@]1(C(=O)N2CCOCC2)N=C(c2ccc(OCCCO)cc2)O[C@@H]1c1ccccc1CN=[N+]=[N-]"
range 3

* * *

Assay: A549 lung cancer cell viability effects, profiling panel, resazurin fluorescence, 24 h, PK04 Diversity Set (AID 1171); further: test concentration not given here
Settings: higher = more signal, called active from +8 up or from −8 down
attributeMeasured: z-score
A bare number is all that is needed in reply.

Using the record for "CCOC(=O)C[C@H]1[C@H](OC(=O)Cc2ccc3c(c2)OCO3)[C@@H](NC(=O)CC(C)C)c2cc(OCCCO)ccc2N1C(=O)c1ccc2ccccc2n1" , state its measured z-score.
0.194

Using the record for "C=CC[C@]12N=C(c3ccc(OCCCO)cc3)O[C@H]1c1ccccc1N(CCC)C2=O" , state its measured z-score.
0.266

Using the record for "Cc1ccc(S[C@]2(C(=O)NC(C)C)CC(=O)N(Cc3ccccc3)[C@@H]2c2ccc(CO)cc2I)cc1" , state its measured z-score.
-1.13

Using the record for "COCCOC(=O)N1C(=O)[C@@]2(c3cc(C#CCNC(N)=O)ccc31)[C@H](c1ccccc1OCCO)N1[C@H](c3ccccc3)[C@H](c3ccccc3)OC(=O)[C@H]1[C@@H]2C(=O)N1CCCCCCC1" , state its measured z-score.
0.519

Using the record for "[N-]=[N+]=NCc1ccccc1C[C@]1(C(=O)N2CCCCC2)COC(c2ccc(OCCCO)cc2)=N1" , state its measured z-score.
0.898

Using the record for "CC(C)C[C@@H]1NC(=O)[C@H]2C[C@@H](C(=O)O)[C@@H](c3cccc(OCCO)c3)N2C1=O" , state its measured z-score.
0.668

Using the record for "C=C(CC1([C@@H](NP(=O)(c2ccccc2)c2ccccc2)[C@H]2C[C@@H]2CCCC)CC1)c1cccc(OC)c1" , state its measured z-score.
6.21

Using the record for "Cc1ccc(S[C@]2(C(=O)NC3CC3)CC(=O)N(C3Cc4ccccc4C3)[C@@H]2c2ccc(CO)cc2I)cc1" , state its measured z-score.
0.395

Using the record for "Cc1ccc(S[C@]2(C(=O)NCc3ccccc3)CC(=O)N(Cc3ccccc3C(F)(F)F)[C@@H]2c2ccc(CO)cc2I)cc1" , state its measured z-score.
1.15

Using the record for "CC(C)Cc1ccc(CN2CC[C@@H](NC(=O)c3ccccc3)C2)cc1" , state its measured z-score.
0.247

Using the record for "COC(=O)[C@@]1(Cc2ccc(F)cc2)[C@H]2c3cc(C(=O)N(C)C)n(CCF)c3C[C@H]2CN1C(=O)c1ccccc1" , state its measured z-score.
-0.957

Using the record for "[N-]=[N+]=NCc1ccccc1[C@H]1OC(c2ccc(OCCCO)cc2)=N[C@@]1(Cc1ccccc1N=[N+]=[N-])C(=O)N1CCOCC1" , state its measured z-score.
-0.772

Using the record for O=C1OCCC/C=C\[C@H]2OC34C=CCN(Cc5ccccc5)C(=O)[C@H]3N(CCO)C(=O)[C@@H]4C12 (some centres not stated) , state its measured z-score.
0.263

Using the record for "COc1c(C)cc(-c2cc3c(c(CCc4ccccc4)n2)[Si](C(C)C)(C(C)C)O[C@H]3c2ccccc2)cc1C" , state its measured z-score.
0.453

Using the record for "O=C1C[C@@](C(=O)NCC(F)(F)F)(c2ccc([N+](=O)[O-])cc2)[C@@H](c2ccc(CO)cc2I)N1CC12CC3CC(CC(C3)C1)C2" , state its measured z-score.
-3.86

Using the record for CCCCN1CC=CC23O[C@@H]4/C=C\CCC(C)OC(=O)C4[C@H]2C(=O)N(CCO)[C@@H]3C1=O (some centres not stated) , state its measured z-score.
0.265

Using the record for "CC[C@@H](O[Si](C#C[Si](C(C)C)(C(C)C)C(C)C)(C(C)C)C(C)C)c1cn([C@H](CO)Cc2ccccc2)nn1" , state its measured z-score.
0.194

These data points were gathered from PubChem BioAssay.
